Measured protein stability index by item
B1: EPB41L3 (parent)
chain: GSKFRYSGRTQAQTRRASALIDRP

variants of: B1; assay: protein stability index of a GFP-peptide fusion (GPS, HEK-293T) (PSI 1-6); higher = more stable; settings: c terminus: a fixed tail appended;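 note: lentivirally expressed fusions sorted by FACS into six bins by GFP to DsRed ratio, PSI derived from sequencing read proportions per bin multiplied by bin number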

// below: answered variants
Tell me measured protein stability index for A12N please.
3.08

Tell me measured protein stability index for D22C please.
2.99

Tell me measured protein stability index for G1W please.
2.33

// next item, protein stability index requested
Tell me measured protein stability index for T14R please.
3.44
